- experimentalSystem: human PDE10A (UniProt Q9Y233)
- Sequence (Q9Y233 290-1055 limits assumed): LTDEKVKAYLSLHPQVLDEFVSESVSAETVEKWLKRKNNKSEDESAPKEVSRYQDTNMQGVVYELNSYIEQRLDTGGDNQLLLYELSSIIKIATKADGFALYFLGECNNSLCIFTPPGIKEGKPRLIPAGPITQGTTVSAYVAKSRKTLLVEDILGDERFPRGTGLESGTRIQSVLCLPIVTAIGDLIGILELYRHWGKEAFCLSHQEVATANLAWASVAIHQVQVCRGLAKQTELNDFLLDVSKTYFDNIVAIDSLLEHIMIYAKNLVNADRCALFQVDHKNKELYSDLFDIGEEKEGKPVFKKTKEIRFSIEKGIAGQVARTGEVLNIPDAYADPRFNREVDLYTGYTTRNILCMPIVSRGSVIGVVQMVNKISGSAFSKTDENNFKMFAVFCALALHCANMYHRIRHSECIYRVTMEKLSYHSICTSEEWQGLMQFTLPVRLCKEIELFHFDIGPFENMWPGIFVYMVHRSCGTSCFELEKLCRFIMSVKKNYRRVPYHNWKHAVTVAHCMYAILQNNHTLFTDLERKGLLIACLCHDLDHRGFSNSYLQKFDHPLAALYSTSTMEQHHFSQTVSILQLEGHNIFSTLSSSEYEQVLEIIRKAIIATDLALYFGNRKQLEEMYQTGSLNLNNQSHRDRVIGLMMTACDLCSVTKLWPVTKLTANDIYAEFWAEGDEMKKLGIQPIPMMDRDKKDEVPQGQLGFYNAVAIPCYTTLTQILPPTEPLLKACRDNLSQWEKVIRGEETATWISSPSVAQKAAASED
- testProtocol: Measurement of PDE activity (recombinant enzyme, HTRF cAMP kit)
- Format: biochemical
- runParameters: Table 1, substrate 20 nM for PDE10, 60 minutes at 29 C, read-out: IC50
Structures can show the parent of a compound that is named as a salt.
observable: IC50

compound="Cn1nccc1-c1cccc2cnn(CCc3ccc4ccccc4n3)c(=O)c12 [Example 161, hydrochloride]" experimentalsystem="human PDE10A (UniProt Q9Y233)" observable=IC50 recordedmeasurement="< 100 nM"
compound=O=c1c2c(-c3ccc(F)c(F)c3)csc2cnn1CCc1ccc2ccccc2n1 experimentalsystem="human PDE10A (UniProt Q9Y233)" observable=IC50 recordedmeasurement="100 to 200 nM"

## Input Could you tell me which IC50 is on file for COc1ccc2nc(/C=C/n3ccc4scc(-c5ccncc5)c4c3=O)ccc2c1 ?
## Output < 100 nM

## Input Could you tell me which IC50 is on file for O=c1c2c(-c3cc(F)cc(F)c3)cccc2cnn1CCc1ccc2ccccc2n1 ?
## Output 100 to 200 nM

## Input Could you tell me which IC50 is on file for O=c1c2c(C#Cc3cccnc3)csc2cnn1CCc1ccc2ccccc2n1 [compound 319, hydrochloride] ?
## Output < 100 nM
